# Test system: K562
# measurement protocol: NCI tumour cell line growth inhibition, 48 h
The source made the active and inactive calls. Rule as the data show it: active = GI50 up to about 1.1 µM and inactive = higher.
property: GI50

The following molecules have reported results that may help.
O=C(Cc1ccccc1)NNc1nc(NNC(=O)c2ccncc2)nc(Nc2ccccc2)n1: > 10 µM (inactive)
CC(=O)Nc1ccc2c(c1)/C(=C\c1ccc([N+](C)(C)C)cc1)c1ccccc1-2: 29.6 µM (inactive)
COC(=O)[C@@H]1[C@H]2CC[C@]3(C)[C@@H](OC(C)=O)CC[C@H]3[C@@H]2CC[C@H]1C1(C)SCCS1: 36.1 µM (inactive)
O=c1oc2ccccc2c(Nc2ccc3c(c2)S(=O)(=O)c2ccccc2O3)c1[N+](=O)[O-]: 20.6 µM (inactive)
CC(C)CC1c2[nH]c3ccccc3c2C[C@H]2C(=O)NC(CCCCNC(=O)OC(C)(C)C)C(=O)N12 (stereo not given in full): 32 µM (inactive)

Query block: Param item = O=[N+]([O-])/C(C(Cl)=C(Cl)Cl)=C(\Nc1cccc2cccnc12)Sc1ccccc1 ; retrieve measured GI50.
Result block: 28.4 µM (inactive)

Query block: Moving on to COc1cc2c(c(OC)c1OC)C(=O)[C@@H]1[C@H]2N1C(=O)NCCCl
Result block: 45.8 µM (inactive)

Query block: Moving on to COc1cc(Nc2nc3ccc(C(F)(F)F)cc3nc2-c2ccccc2)cc(OC)c1OC
Result block: 5.56 µM (inactive)

---

# Test system: MDA-N
# measurement protocol: NCI tumour cell line growth inhibition, 48 h
Active and inactive are the calls of the source. No stated cut-off is given here; in the data, active = GI50 up to about 1.1 µM and inactive = higher.
Please state which outcome applies, choosing from 1 (active), 0 (inactive)

Examples with answers:
N#Cc1c(N2CCN(c3ccc([N+](=O)[O-])cc3)CC2)[n+]([O-])c2ccc(Cl)cc2[n+]1[O-]: 0
Brc1ccccc2cc(-c3ccccc3)nc1-2: 0
O=c1[nH][nH]c(=O)n1Cc1ccccc1: 0

Query block: For O=S(=O)(O)C(Cc1nc2ccccc2[nH]1)S(=O)(=O)OCCC1S(=O)(=O)OCCOS1(=O)=O (stereo not given) , which call appears in the assay record?
Result block: 0

Query block: Moving on to COc1cc2cc(C(=O)N3CC(CCl)c4c3cc(N(C)C)c3ccccc43)[nH]c2c(OC)c1OC (stereo not given)
Result block: 1

Query block: Moving on to C=CCCCCOC1C=CC(OC(C)=O)C(COC(C)=O)O1 (stereo not given)
Result block: 0

Query block: Moving on to CCN(CC)CCNC(=O)c1cc2cc(NC(=O)c3cc4cc(N)ccc4[nH]3)ccc2[nH]1
Result block: 0

Query block: Moving on to CC(C)Cn1cnc2c(SCc3ccc(Cl)cc3Cl)nc(N)nc21
Result block: 0

Query block: Moving on to CC(C)[Si](OC1=C(C(=O)Nc2ccccc2Cl)CCCCC1)(C(C)C)C(C)C
Result block: 0

---

# Tested on: SW-620
# measurement protocol: NCI tumour cell line growth inhibition, 48 h
Activity calls are given as the source filed them. No stated cut-off is given here; in the data, active = GI50 up to about 1.1 µM and inactive = higher.
Please state which outcome applies, choosing from active, inactive

CN(Cc1cnc2nc(N)nc(N)c2n1)c1ccc(C(=O)NCCCC(=O)O)cc1: inactive
C=C(CN(C)C)C(=O)c1ccc(C(=O)C(=C)CN(C)C)cc1: inactive
Cc1cc(S(=O)(=O)O)ccc1/N=N/c1c(O)ccc2ccccc12: inactive

Query block: For CN(C)CCNC(=O)c1ccc2nc3c(nc2c1)C(=O)c1ccccc1-3 , which call appears in the assay record?
Result block: inactive

Query block: Moving on to O=C(O)CCNS(=O)(=O)c1ccc([N+](=O)[O-])cc1
Result block: inactive

Query block: Moving on to Cc1nc(O)c(O)c(CN2CCCCC2)n1
Result block: inactive

Query block: Moving on to COC(=O)C1=COC2OC3/C(=C\c4ccc(O)c(OC)c4)C(=O)OC34C=CC1C24 (stereo not drawn)
Result block: inactive

Query block: Moving on to CC(C)(C)C1=CC(=N/N=c2\scc(-c3ccccc3)n2-c2ccccc2)C=C(C(C)(C)C)C1=O
Result block: inactive

Query block: Moving on to Cc1c(-c2ccc(O)cc2)n(CCCCCCNCCOC(=O)NCCCc2ccc(N(CCCl)CCCl)cc2)c2ccc(O)cc12
Result block: inactive

Query block: Moving on to Cc1ccccc1NC(=O)O/N=C(\Cl)C(C)C
Result block: inactive

Query block: Moving on to O=C(CSCC(=O)N/N=C/c1ccc2c(c1)OCO2)N/N=C/c1ccc2c(c1)OCO2
Result block: inactive

Query block: Moving on to c1ccc2c(c1)c1ccccc1c1n[se]nc21
Result block: inactive

Query block: Moving on to CCOC(=O)c1ccc(N[C@@H]2c3cc4c(cc3C(c3cc(OC)c(O)c(OC)c3)[C@H]3C(=O)OCC32)OCO4)cc1 (stereo partly drawn)
Result block: active

Query block: Moving on to C=C(C)[C@@H]1CC[C@@]2(C)[C@H]1[C@H]1CCC3[C@@]4(C)CC[C@H](O)C(C)(C)[C@@H]4CC[C@@]3(C)[C@]1(C)C[C@@H]2O (stereo partly drawn)
Result block: inactive

Query block: Moving on to COCOc1ccc(C(=O)C(C)c2ccc(OCOC)cc2OCOC)c(O)c1 (stereo not drawn)
Result block: inactive

Query block: Moving on to COc1ccc2cc1Oc1ccc(cc1)C[C@H]1c3cc(c(OC)cc3CCN1C)Oc1c(O)c(OC)cc3c1[C@H](C2)N(C)CC3
Result block: inactive

Origin of measurements: ChEMBL document CHEMBL1201862
